molecular target: Nucleotide-binding oligomerization domain-containing protein 2 (Homo sapiens); experiment: NOD2 signaling inhibitors in MDP-stimulated cells, cell-based, uHTS, luminescence (AID 2001)
Sequence (Q9HC29 whole entry, the tested form may be a part): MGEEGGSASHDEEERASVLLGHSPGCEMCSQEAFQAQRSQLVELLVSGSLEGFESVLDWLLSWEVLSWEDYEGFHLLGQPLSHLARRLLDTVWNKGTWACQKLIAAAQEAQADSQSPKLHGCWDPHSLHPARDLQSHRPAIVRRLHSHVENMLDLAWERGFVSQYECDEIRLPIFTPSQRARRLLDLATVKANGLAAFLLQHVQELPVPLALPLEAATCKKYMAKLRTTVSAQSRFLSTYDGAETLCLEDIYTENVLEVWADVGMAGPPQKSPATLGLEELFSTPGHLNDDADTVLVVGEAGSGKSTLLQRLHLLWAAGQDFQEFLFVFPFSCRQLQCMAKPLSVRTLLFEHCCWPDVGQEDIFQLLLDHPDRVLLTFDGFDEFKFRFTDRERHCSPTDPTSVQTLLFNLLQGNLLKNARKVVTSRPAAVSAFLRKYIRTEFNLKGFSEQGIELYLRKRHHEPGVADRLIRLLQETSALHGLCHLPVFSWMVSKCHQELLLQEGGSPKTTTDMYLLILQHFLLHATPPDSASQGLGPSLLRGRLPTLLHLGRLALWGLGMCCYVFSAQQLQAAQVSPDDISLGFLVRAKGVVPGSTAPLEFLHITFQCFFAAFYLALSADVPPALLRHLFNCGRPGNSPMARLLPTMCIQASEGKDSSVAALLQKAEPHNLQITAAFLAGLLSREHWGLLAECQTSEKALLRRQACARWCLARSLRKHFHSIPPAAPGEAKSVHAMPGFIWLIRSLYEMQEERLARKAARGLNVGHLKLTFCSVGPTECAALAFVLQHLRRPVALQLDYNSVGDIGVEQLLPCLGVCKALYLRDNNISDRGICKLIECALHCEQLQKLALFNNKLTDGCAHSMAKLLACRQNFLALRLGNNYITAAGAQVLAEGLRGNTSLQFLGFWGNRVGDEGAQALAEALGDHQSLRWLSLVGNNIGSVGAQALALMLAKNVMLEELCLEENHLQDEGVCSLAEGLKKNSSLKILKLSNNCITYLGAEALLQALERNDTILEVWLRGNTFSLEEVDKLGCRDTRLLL
Entries whose IC50 is below 5 µM take T; entries at or above 5 µM take F.

QUERY: Consider the molecule C=CCN1C(=O)C(=NNC(=S)Nc2cccc(C)c2)c2ccccc21 . Is its IC50 strictly less than 5 µM?
RESULT: T

QUERY: Consider the molecule CCCCCCC1=Cc2c/c(=C3/NN/C(=C4/C=CC=CC4=O)O3)c(=O)oc2=CC1=O . Is its IC50 strictly less than 5 µM?
RESULT: T

QUERY: Consider the molecule C=CCN1C(=O)C(=NNC(=S)Nc2cccc(OC)c2)c2ccccc21 . Is its IC50 strictly less than 5 µM?
RESULT: T

QUERY: Consider the molecule Cc1ccc(O)c(/N=C/C2=CC(Cc3ccccc3)C=C([N+](=O)[O-])C2=O)c1 (centres undefined) . Is its IC50 strictly less than 5 µM?
RESULT: F

QUERY: Consider the molecule Cc1cc(SCC(=O)OCC(=O)C(C#N)c2nc3ccccc3[nH]2)c(C)cc1Br (centres undefined) . Is its IC50 strictly less than 5 µM?
RESULT: F

QUERY: Consider the molecule COc1cc(CN=Nc2nc3c(c(=O)n(C)c(=O)n3C)n2Cc2ccccc2)ccc1OC(=O)c1ccco1 . Is its IC50 strictly less than 5 µM?
RESULT: F

QUERY: Consider the molecule Cc1cc(CN=Nc2ncnc(N)c2[N+](=O)[O-])c(C)n1-c1ccccc1 . Is its IC50 strictly less than 5 µM?
RESULT: F

QUERY: Consider the molecule CCCCCCC1=Cc2c/c(=C3/NN=C(c4ccccc4OC)O3)c(=O)oc2=CC1=O . Is its IC50 strictly less than 5 µM?
RESULT: F

---

target: Nucleotide-binding oligomerization domain-containing protein 2 (Homo sapiens); assay: NOD2 signaling inhibitors in MDP-stimulated cells, cell-based, uHTS, luminescence (AID 2001)
pIC50: −log10 of the molar value.
Where pIC50 equals or exceeds 5, the correct label is yes; where it does not, the label is no.

CCCOC1=CC(=O)C(C=NNC(=S)Nc2ccccc2[N+](=O)[O-])C=C1 (configuration not stated) ... yes
CCOc1ccc(-c2csc(/C(C#N)=C/C3C=CC(=O)C([N+](=O)[O-])=C3)n2)cc1 (configuration not stated) ... yes
Cc1cc(N=NCc2ccccc2[N+](=O)[O-])nc(-n2nc(C)cc2C)n1 ... yes
COc1ccc(NS(=O)(=O)c2ccc(N=NC(C)c3ccncc3)c([N+](=O)[O-])c2)cc1 (configuration not stated) ... yes
Cc1cc(CN=Nc2nc(N)ncc2[N+](=O)[O-])c(C)n1-c1ccccc1F ... yes

From here, focus on the item given below.
QUERY: Identify whether the reported pIC50 of the following compound is 5 or greater: O=C1C(=O)N(c2nccs2)C(c2ccccc2)C1C(=O)c1ccc2c(c1)OCCO2 (configuration not stated)
RESULT: no
